Entries and their HTRF avg pIC50 (1 nM) values follow.
target or system: human BCL6 BTB domain (Trx-6×His-BCL6) / BCOR-AF633 peptide (Homo sapiens (Human))
experiment: HTRF assay
Assay type: binding
test parameters: 1 nM Trx-6×His-BCL6, 300 nM BCOR-AF633 peptide, 2 hours incubation

Answered examples (5):
Tested on human BCL6 BTB domain (Trx-6×His-BCL6) / BCOR-AF633 peptide (Homo sapiens (Human)), the item CN1CCN(c2ncc(Cl)c(Nc3ccc4c(c3)c3c(c(=O)n4C)OCC[C@H](C4CC4)N3)n2)CC1=O [Example 12b] showed HTRF avg pIC50 (1 nM) equal to 7.80

Tested on human BCL6 BTB domain (Trx-6×His-BCL6) / BCOR-AF633 peptide (Homo sapiens (Human)), the item C[C@H]1CCOc2c(c3cc(Nc4nc(-n5ccc(C(F)(F)F)n5)ncc4Cl)ccc3n(C)c2=O)N1 showed HTRF avg pIC50 (1 nM) equal to 6.43

Tested on human BCL6 BTB domain (Trx-6×His-BCL6) / BCOR-AF633 peptide (Homo sapiens (Human)), the item C[C@@H]1CN(c2ncc(Cl)c(Nc3ccc4[nH]c(=O)c5c(c4c3)N[C@@H](C3CC3)CCO5)n2)C[C@H](C)C1(F)F showed HTRF avg pIC50 (1 nM) equal to 6.24

Tested on human BCL6 BTB domain (Trx-6×His-BCL6) / BCOR-AF633 peptide (Homo sapiens (Human)), the item C[C@@H]1C[C@H](C)CN(c2ncc(Cl)c(Nc3ccc4c(c3)c3c(c(=O)n4C)C(=O)OC[C@H](C4CC4)N3)n2)C1 showed HTRF avg pIC50 (1 nM) equal to 6.36

Tested on human BCL6 BTB domain (Trx-6×His-BCL6) / BCOR-AF633 peptide (Homo sapiens (Human)), the item C[C@@H]1CN(c2ncc(Cl)c(Nc3ccc4c(c3)c3c(c(=O)n4C)OCC(F)(F)[C@H](C4CC4)N3)n2)C[C@H](C)C1(F)F [Example 12o] showed HTRF avg pIC50 (1 nM) equal to 7.74

Further cases:
Tested on human BCL6 BTB domain (Trx-6×His-BCL6) / BCOR-AF633 peptide (Homo sapiens (Human)), the item Cn1c(=O)c2c(c3cc(Nc4ccnc(Cl)c4C#N)ccc31)NC(C1CC1)COC2=O (stereo not shown) showed HTRF avg pIC50 (1 nM) equal to 6.71

Tested on human BCL6 BTB domain (Trx-6×His-BCL6) / BCOR-AF633 peptide (Homo sapiens (Human)), the item C[C@@H]1C[C@H](O)CN(c2ncc(Cl)c(Nc3ccc4c(c3)c3c(c(=O)n4C)OCC(F)(F)[C@H](C4CC4)N3)n2)C1 (single isomer, unassigned) [Example 13e] showed HTRF avg pIC50 (1 nM) equal to 8.60

Tested on human BCL6 BTB domain (Trx-6×His-BCL6) / BCOR-AF633 peptide (Homo sapiens (Human)), the item Cn1c(=O)c2c(c3cc(Nc4cc(C(=O)N5CC(C(F)(F)F)C5)nc(Cl)c4C#N)ccc31)N[C@@H](C1CC1)CCO2 showed HTRF avg pIC50 (1 nM) equal to 7.32

Tested on human BCL6 BTB domain (Trx-6×His-BCL6) / BCOR-AF633 peptide (Homo sapiens (Human)), the item C[C@H]1COCc2c(c3cc(Nc4ccnc(Cl)c4C#N)ccc3n(C)c2=O)N1 showed HTRF avg pIC50 (1 nM) equal to 5.66

Tested on human BCL6 BTB domain (Trx-6×His-BCL6) / BCOR-AF633 peptide (Homo sapiens (Human)), the item C[C@@H]1CN(c2ncc(Cl)c(Nc3ccc4c(c3)c3c(c(=O)n4C)OCC[C@H](C4CC4)N3)n2)C[C@H](C)C1(F)F showed HTRF avg pIC50 (1 nM) equal to 6.70

Tested on human BCL6 BTB domain (Trx-6×His-BCL6) / BCOR-AF633 peptide (Homo sapiens (Human)), the item CNCCn1c(=O)c2c(c3cc(Nc4nc(N5C[C@@H](C)C(F)(F)[C@@H](C)C5)ncc4Cl)ccc31)N[C@@H](C1CC1)CCO2 [Example 17a] showed HTRF avg pIC50 (1 nM) equal to 7.15

Tested on human BCL6 BTB domain (Trx-6×His-BCL6) / BCOR-AF633 peptide (Homo sapiens (Human)), the item Cn1c(=O)c2c(c3cc(Nc4nc(N5C6CC7CC5CC(C6)O7)ncc4Cl)ccc31)N[C@@H](C1CC1)CCO2 showed HTRF avg pIC50 (1 nM) equal to 7.64

Tested on human BCL6 BTB domain (Trx-6×His-BCL6) / BCOR-AF633 peptide (Homo sapiens (Human)), the item CN1CC2CC(C1)N2c1ncc(Cl)c(Nc2ccc3c(c2)c2c(c(=O)n3C)OCC(F)(F)[C@H](C3CC3)N2)n1 [Example 13h] showed HTRF avg pIC50 (1 nM) equal to 8.43
